# Tested on: RAW264.7 cells differentiated in osteoclasts
# Protocol Details: Toxicity test on differentiated osteoclasts (TRAP staining, morphology)
# Type: cell-based
# Parameters: key: compounds which induce the death of all the osteoclasts after 72 hours (−); compounds which induce morphological anomalies and/or death of part of the osteoclasts (+/−); +: Compounds which do not induce visible modifications of the osteoclasts
# Cond: at the concentration given in Table 2, vs 0.5% DMSO control

[
  {
    "Molecule": "CCC(=O)Nc1ccc(N2CCN(C(C)=O)CC2)cc1 [Compound 13]",
    "Survival at 72 hours": "+"
  },
  {
    "Molecule": "CC(C)(C)c1cc(C2Nc3cccc4cccc(c34)N2)cc(C(C)(C)C)c1O [Compound 30]",
    "Survival at 72 hours": "−"
  },
  {
    "Molecule": "O=C(COc1cccc2ccccc12)Nc1ccc2c(c1)OCCO2 [Compound 10]",
    "Survival at 72 hours": "+"
  },
  {
    "Molecule": "COc1ccc(NC(=O)c2ccccc2Cl)cc1Cl [Compound 51]",
    "Survival at 72 hours": "+"
  },
  {
    "Molecule": "O=C(Nc1ccccc1)Nc1nnc(C23CC4CC(CC(C4)C2)C3)s1 [Compound 49]",
    "Survival at 72 hours": "+/−"
  },
  {
    "Molecule": "COCCOC(=O)c1ccc(NC(=O)c2ccc(C(C)(C)C)cc2)cc1 [Compound 44]",
    "Survival at 72 hours": "−"
  },
  {
    "Molecule": "Oc1ccc(-c2nc(-c3ccccc3)c(-c3cccs3)[nH]2)cc1O [Compound 34]",
    "Survival at 72 hours": "−"
  },
  {
    "Molecule": "Cc1ccc(OCc2nnc(NC(=O)Nc3ccc(Cl)c(Cl)c3)s2)cc1 [Compound 53]",
    "Survival at 72 hours": "+/−"
  },
  {
    "Molecule": "C=C1c2ccc(C)cc2NC(=O)N1c1cccc(Cl)c1 [Compound 11]",
    "Survival at 72 hours": "−"
  },
  {
    "Molecule": "CCOc1ccc(C(=O)Nc2ccc(N3CCN(C(C)=O)CC3)cc2)cc1[N+](=O)[O-] [Compound 27]",
    "Survival at 72 hours": "+"
  },
  {
    "Molecule": "O=C(Nc1cc(Cl)cc(Cl)c1)S(=O)(=O)c1ccccc1 [Compound 21]",
    "Survival at 72 hours": "+/−"
  },
  {
    "Molecule": "O=C(/C=C/c1cccc(C(F)(F)F)c1)Nc1ccc(F)cc1 [Compound 54]",
    "Survival at 72 hours": "−"
  },
  {
    "Molecule": "O=C(O)CCC(=O)N1N=C(c2ccc([N+](=O)[O-])cc2)CC1c1ccc(Br)cc1 (stereo not shown) [Compound 4]",
    "Survival at 72 hours": "−"
  },
  {
    "Molecule": "CC1=NN(c2cccc(C(=O)O)c2)C(=O)/C1=C\\c1cccc(Br)c1 [Compound 18]",
    "Survival at 72 hours": "−"
  },
  {
    "Molecule": "CCOc1ccc(NC(=O)CSc2nnc(-c3ccc(OC)cc3)o2)cc1 [Compound 3]",
    "Survival at 72 hours": "+/−"
  },
  {
    "Molecule": "O=C(COc1ccccc1Cl)Nc1cc(C(F)(F)F)ccc1Cl [Compound 12]",
    "Survival at 72 hours": "+"
  },
  {
    "Molecule": "CCOC(=O)C1=C(C)N=c2sc(=Cc3cc(Cl)c(OCC(=O)O)c(OC)c3)c(=O)n2C1c1ccccc1Cl (stereo not shown) [Compound 25]",
    "Survival at 72 hours": "−"
  },
  {
    "Molecule": "CC(=O)N1CCN(c2ccc([N+](=O)[O-])cc2Cl)CC1C (stereo not shown) [Compound 22]",
    "Survival at 72 hours": "−"
  },
  {
    "Molecule": "COc1ccccc1NC(=O)/C(=C\\c1cccs1)NC(=O)c1ccc(C(C)(C)C)cc1 [Compound 46]",
    "Survival at 72 hours": "+"
  },
  {
    "Molecule": "COc1cccc(/C=C2/C=C(c3ccc(C)cc3)OC2=O)c1 [Compound 23]",
    "Survival at 72 hours": "−"
  },
  {
    "Molecule": "O=C(Nc1cccc2nsnc12)c1ccc(Br)o1 [Compound 20]",
    "Survival at 72 hours": "−"
  },
  {
    "Molecule": "COc1cc([N+](=O)[O-])ccc1N=S(C)C [Compound 43]",
    "Survival at 72 hours": "+"
  },
  {
    "Molecule": "O=C1c2ccccc2NC(c2c(Cl)cccc2Cl)N1Cc1ccccc1 (stereo not shown) [Compound 33]",
    "Survival at 72 hours": "−"
  },
  {
    "Molecule": "Cc1ccc(N(C(=O)C(Cl)(Cl)Cl)C2C=CS(=O)(=O)C2)cc1 (stereo not shown) [Compound 5]",
    "Survival at 72 hours": "−"
  },
  {
    "Molecule": "O=C(/C=C/c1ccc(F)cc1)Nc1ccccc1Cl [Compound 40]",
    "Survival at 72 hours": "+"
  },
  {
    "Molecule": "O=Cc1cn(Cc2ccc(Cl)c(Cl)c2)c2ccccc12 [Compound 35]",
    "Survival at 72 hours": "−"
  },
  {
    "Molecule": "O=C1c2ccccc2NC(c2ccccc2O)N1Cc1ccco1 (stereo not shown) [Compound 55]",
    "Survival at 72 hours": "−"
  },
  {
    "Molecule": "O=C(O)/C=C/c1ccc(-c2ccc(Cl)c(Cl)c2)o1 [Compound 24]",
    "Survival at 72 hours": "−"
  },
  {
    "Molecule": "Cc1cc(=O)n2ccc(CN(C)C)c(O)c2n1 [Compound 14]",
    "Survival at 72 hours": "+"
  },
  {
    "Molecule": "Cc1ccc(/C=C/C(=O)Nc2ccccc2Br)o1 [Compound 6]",
    "Survival at 72 hours": "+"
  },
  {
    "Molecule": "O=C1NC(=O)N(c2ccccc2Cl)C(=O)C1=Cc1ccccc1 [Compound 48]",
    "Survival at 72 hours": "+"
  },
  {
    "Molecule": "Cc1ccc(/C=C/C(=O)Nc2cccc(Cl)c2Cl)o1 [Compound 47]",
    "Survival at 72 hours": "−"
  },
  {
    "Molecule": "Oc1ccccc1C(=S)N1N=C(c2ccccc2)CC1(O)C(F)(F)F (stereo not shown) [Compound 42]",
    "Survival at 72 hours": "−"
  },
  {
    "Molecule": "COc1ccc(NC(=O)c2ccc(N(C)S(=O)(=O)c3ccccc3)cc2)cc1OC [Compound 37]",
    "Survival at 72 hours": "−"
  },
  {
    "Molecule": "O=S(=O)(c1cccc2nsnc12)N1CCN(C(c2ccccc2)c2ccccc2)CC1 [Compound 26]",
    "Survival at 72 hours": "−"
  },
  {
    "Molecule": "O=C1/C(=C\\c2ccc([N+](=O)[O-])cc2)SC(=S)N1c1cccc(C(F)(F)F)c1 [Compound 16]",
    "Survival at 72 hours": "+/−"
  },
  {
    "Molecule": "CCc1nc(-c2ccccc2)nc(C)c1C [Compound 50, 4-ethyl-5,6-dimethyl-2-phenylpyrimidine]",
    "Survival at 72 hours": "+"
  }
]
